# tested on: FGFR1 (UniProt P11362)
# Sequence (P11362 whole entry, looked up): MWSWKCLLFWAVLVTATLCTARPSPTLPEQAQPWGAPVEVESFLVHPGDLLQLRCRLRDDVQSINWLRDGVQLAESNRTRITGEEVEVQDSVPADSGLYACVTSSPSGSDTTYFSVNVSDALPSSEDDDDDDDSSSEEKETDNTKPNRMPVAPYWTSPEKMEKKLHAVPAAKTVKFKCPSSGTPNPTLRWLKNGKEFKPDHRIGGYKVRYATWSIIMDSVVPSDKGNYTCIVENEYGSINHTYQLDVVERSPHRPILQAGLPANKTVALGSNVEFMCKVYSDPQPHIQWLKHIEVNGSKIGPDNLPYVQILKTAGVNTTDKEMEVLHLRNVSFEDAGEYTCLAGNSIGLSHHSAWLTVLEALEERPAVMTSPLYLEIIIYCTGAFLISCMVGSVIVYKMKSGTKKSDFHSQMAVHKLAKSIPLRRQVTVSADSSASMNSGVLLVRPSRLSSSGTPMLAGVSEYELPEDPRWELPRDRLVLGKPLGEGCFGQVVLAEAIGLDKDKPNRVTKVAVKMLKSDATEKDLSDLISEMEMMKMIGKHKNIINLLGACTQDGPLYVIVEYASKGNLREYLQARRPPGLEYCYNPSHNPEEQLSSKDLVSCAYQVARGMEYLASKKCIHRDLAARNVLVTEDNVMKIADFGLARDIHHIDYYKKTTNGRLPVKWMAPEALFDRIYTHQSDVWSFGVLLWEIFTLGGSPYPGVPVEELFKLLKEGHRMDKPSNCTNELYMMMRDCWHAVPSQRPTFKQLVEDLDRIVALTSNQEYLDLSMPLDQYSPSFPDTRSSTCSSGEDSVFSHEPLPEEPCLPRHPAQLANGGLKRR
# protocol description: phosphorylation enrichment, bacterial display (enrichment ratio); higher = better substrate or ligand; peptides without Tyr show the background;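 note: 11-residue human phosphosite peptides and single-mutation variants displayed on the E. coli surface, counted by deep sequencing, each peptide's frequency after selection divided by its frequency in the unselected input library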;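 note: frequency after pTyr selection over input frequency; kinase dosed for 20-30% of maximal phosphorylation in three min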
Hi there, I'd appreciate the recorded phosphorylation enrichment for every entry that follows.
Answers are plain numbers.

Here's what some known entries look like.
sequence: WEPFGFAVTRC [PTPRT_Y412_Y412F]
phosphorylation enrichment: 0.447
//
sequence: LPSKDYAEVGR [HP_Y272]
phosphorylation enrichment: 0.918
//
sequence: VAVVQYSGMGQ [COL6A1_Y878_T881M]
phosphorylation enrichment: 0.44
//
sequence: PSAELYSYALP [PDGFRB_Y716_N718Y]
phosphorylation enrichment: 10.6
//
sequence: AMGPVYQAAAL [HYOU1_Y421_A419P]
phosphorylation enrichment: 0.502
//
sequence: SRIWVYNHYRW [BRCA2_Y2621]
phosphorylation enrichment: 0.574

Okay, now this sequence:
Param readout = phosphorylation enrichment; param system = FGFR1 (UniProt P11362); param query = EDDIIYTQDFM [STK11_Y362_T367M] ; response: value 0.911

Data origin: the supplement of paper PMC10065799
